Molecular target: ATM (Homo sapiens)
Construct: detecting phosphorylation of Chk2 in a human non-small cell lung cancer cell line NCI-H460 (ATCC company); host or cells: NCI-H460 human non-small cell lung cancer cells
Test: ATM inhibition test (phosphorylation of Chk2 generated by ionizing radiation, AlphaScreen SureFire)
Type: cell-based
Settings: phosphorylated Chk2 in NCI-H460 cells, ionizing radiation 8Gy, 1 hour after test compound treatment; read-out: ATM inhibitory activity
IC50 values, listed per item

{"MOLECULE": "CN(C)c1ncc(CN2CCC(Nc3ccc4c(c3)Cc3cccc(-c5cc(N6CCOCC6)cc(=O)[nH]5)c3O4)CC2)cn1", "TESTED_ON": "ATM (Homo sapiens)", "IC50": "100 to 500 nM"}
{"MOLECULE": "Cc1ccc(C(Nc2ccc3c(c2)Sc2cccc(-c4cc(N5CCOCC5)cc(=O)[nH]4)c2S3)C(C)C)nc1 (centres unmarked)", "TESTED_ON": "ATM (Homo sapiens)", "IC50": "< 100 nM"}
{"MOLECULE": "Cc1ccnc(CNc2ccc3c(c2)Sc2cccc(-c4cc(N5CCOCC5)cc(=O)[nH]4)c2S3)c1", "TESTED_ON": "ATM (Homo sapiens)", "IC50": "< 100 nM"}

# lookup: IC50 of O=c1cc(N2CCOCC2)cc(-c2cccc3c2Oc2ccc(NC4CCN(Cc5cccs5)CC4)cc2C3)[nH]1 100 to 500 nM

Record request: IC50 value, item COCCN1CCOC(C(Nc2ccc3c(c2)Sc2cccc(-c4cc(N5CCOCC5)cc(=O)[nH]4)c2S3)c2ccc(C)cn2)C1 (single isomer, unassigned) [Example 1-56-8] < 100 nM

Given the molecule Nc1ccc2c(c1)Cc1c(F)ccc(-c3cc(N4CCOCC4)cc(=O)[nH]3)c1O2 , what is its reported IC50? 500 to 2000 nM

Quick one: IC50 of CN(c1ccc2c(c1)Sc1cccc(-c3cc(N4CCOCC4)cc(=O)[nH]3)c1S2)C1CCCNC1 (centres unmarked) ? 500 to 2000 nM

Requested read-out: IC50. Entry: Cn1cc(-c2cncc(CNc3ccc4c(c3)Sc3cccc(-c5cc(N6CCOCC6)cc(=O)[nH]5)c3S4)c2)cn1 100 to 500 nM

###

Catalogue of pIC50 readings, one per entry.
Target: ATM (Homo sapiens, UniProt Q13315)
Construct: detecting phosphorylation of Chk2 in a human non-small cell lung cancer cell line NCI-H460 (ATCC company); host or cells: NCI-H460 human non-small cell lung cancer cells
Sequence (Q13315 whole entry): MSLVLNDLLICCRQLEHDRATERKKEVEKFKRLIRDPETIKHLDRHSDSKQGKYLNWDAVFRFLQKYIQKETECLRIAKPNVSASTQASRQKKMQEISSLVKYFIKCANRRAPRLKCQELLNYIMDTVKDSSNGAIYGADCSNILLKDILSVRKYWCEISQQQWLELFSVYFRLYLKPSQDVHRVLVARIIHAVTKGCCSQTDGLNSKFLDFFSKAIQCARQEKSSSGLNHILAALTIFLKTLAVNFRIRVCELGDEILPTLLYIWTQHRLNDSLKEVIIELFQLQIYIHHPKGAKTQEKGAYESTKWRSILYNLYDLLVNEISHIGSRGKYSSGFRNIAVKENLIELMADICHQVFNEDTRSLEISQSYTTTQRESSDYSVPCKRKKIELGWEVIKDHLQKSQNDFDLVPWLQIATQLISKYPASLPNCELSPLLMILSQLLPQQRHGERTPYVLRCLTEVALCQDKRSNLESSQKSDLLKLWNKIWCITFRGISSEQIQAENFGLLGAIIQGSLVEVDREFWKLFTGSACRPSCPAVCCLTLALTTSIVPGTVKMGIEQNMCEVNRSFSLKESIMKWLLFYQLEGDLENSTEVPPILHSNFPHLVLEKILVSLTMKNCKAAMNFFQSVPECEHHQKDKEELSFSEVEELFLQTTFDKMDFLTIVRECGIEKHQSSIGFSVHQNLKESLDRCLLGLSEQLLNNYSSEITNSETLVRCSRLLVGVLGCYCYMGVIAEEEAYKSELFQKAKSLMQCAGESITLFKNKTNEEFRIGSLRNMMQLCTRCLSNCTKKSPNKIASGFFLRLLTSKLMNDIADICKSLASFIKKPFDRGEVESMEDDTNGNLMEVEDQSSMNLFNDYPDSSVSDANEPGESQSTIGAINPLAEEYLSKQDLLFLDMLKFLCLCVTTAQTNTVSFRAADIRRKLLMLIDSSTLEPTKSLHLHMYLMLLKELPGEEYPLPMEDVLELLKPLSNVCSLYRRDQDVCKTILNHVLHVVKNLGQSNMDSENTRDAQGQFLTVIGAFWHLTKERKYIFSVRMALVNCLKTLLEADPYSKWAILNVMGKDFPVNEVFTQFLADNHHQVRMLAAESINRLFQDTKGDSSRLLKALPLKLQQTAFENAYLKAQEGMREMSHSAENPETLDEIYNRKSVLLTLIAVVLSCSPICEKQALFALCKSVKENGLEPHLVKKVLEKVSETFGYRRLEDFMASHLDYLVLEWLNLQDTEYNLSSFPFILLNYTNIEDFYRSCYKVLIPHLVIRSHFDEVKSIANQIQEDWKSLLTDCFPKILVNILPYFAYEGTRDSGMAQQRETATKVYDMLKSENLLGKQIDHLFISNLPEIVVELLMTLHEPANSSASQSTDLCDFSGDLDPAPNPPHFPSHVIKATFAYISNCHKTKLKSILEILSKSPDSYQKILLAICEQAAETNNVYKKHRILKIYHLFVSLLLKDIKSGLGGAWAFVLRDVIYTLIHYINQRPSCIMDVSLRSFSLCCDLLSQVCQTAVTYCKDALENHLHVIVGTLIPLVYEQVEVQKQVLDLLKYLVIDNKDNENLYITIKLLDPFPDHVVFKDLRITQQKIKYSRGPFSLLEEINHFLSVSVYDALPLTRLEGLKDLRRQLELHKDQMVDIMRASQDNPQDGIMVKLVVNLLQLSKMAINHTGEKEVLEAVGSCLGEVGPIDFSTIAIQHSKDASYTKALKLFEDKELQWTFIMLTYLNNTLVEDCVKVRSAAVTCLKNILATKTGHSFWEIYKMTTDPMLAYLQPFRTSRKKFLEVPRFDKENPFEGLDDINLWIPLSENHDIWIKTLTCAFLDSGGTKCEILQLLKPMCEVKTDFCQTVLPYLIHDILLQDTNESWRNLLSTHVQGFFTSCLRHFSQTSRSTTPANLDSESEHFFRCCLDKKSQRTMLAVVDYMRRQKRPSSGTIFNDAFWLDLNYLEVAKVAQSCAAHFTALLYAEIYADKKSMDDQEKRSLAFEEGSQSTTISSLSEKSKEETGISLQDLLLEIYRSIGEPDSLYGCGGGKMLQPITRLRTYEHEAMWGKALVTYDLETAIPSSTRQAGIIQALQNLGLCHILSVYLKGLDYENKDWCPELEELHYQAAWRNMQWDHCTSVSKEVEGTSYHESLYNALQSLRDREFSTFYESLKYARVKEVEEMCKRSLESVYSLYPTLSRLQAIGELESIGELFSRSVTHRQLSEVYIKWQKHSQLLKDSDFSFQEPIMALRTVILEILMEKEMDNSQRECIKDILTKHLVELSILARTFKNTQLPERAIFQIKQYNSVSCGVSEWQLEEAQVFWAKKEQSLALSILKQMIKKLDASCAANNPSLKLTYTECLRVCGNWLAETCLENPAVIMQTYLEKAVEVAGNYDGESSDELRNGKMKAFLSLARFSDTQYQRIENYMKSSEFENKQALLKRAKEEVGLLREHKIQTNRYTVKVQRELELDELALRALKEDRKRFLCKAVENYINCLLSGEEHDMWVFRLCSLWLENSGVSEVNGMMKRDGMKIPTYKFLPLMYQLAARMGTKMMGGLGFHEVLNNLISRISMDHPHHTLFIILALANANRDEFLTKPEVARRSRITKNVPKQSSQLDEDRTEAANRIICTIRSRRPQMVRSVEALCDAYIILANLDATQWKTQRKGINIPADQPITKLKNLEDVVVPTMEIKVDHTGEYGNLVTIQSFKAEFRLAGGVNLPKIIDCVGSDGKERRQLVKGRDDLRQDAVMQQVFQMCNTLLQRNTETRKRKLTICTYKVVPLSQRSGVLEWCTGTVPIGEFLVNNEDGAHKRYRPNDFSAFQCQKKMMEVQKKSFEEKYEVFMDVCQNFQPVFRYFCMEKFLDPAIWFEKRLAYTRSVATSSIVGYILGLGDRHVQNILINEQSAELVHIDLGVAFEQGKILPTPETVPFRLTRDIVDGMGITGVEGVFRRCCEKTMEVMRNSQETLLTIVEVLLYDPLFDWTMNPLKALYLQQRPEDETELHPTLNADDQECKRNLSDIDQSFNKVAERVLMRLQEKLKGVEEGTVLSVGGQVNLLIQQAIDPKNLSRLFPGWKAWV
Assay: ATM inhibition test (phosphorylation of Chk2 generated by ionizing radiation, AlphaScreen SureFire)
Assay type: cell-based
Details: phosphorylated Chk2 in NCI-H460 cells, ionizing radiation 8Gy, 1 hour after test compound treatment; read-out: ATM inhibitory activity
pIC50: −log10 of the molar value.

{"COMPOUND": "COc1ccc(CCN2CCC(Nc3ccc4c(c3)Cc3cccc(-c5cc(N6CCOCC6)cc(=O)[nH]5)c3O4)CC2)cc1 [Example 2-30-2]", "TESTED_ON": "ATM (Homo sapiens, UniProt Q13315)", "pIC50": "6.30 to 7.00"}
{"COMPOUND": "CN(C)c1ccc(CNc2ccc3c(c2)Cc2cccc(-c4cc(N5CCOCC5)cc(=O)[nH]4)c2O3)cn1 [Example 2-2-8]", "TESTED_ON": "ATM (Homo sapiens, UniProt Q13315)", "pIC50": "6.30 to 7.00"}
{"COMPOUND": "Cc1cccc(CNc2ccc3c(c2)Cc2cccc(-c4nc(N5CCOCC5)cc(=O)[nH]4)c2O3)n1 [Example 2-52-1]", "TESTED_ON": "ATM (Homo sapiens, UniProt Q13315)", "pIC50": "6.30 to 7.00"}
{"COMPOUND": "Cc1ccc(C(C)(C)Nc2ccc3c(c2)Sc2cccc(-c4cc(N5CCOCC5)cc(=O)[nH]4)c2S3)nc1 [Example 1-50-2]", "TESTED_ON": "ATM (Homo sapiens, UniProt Q13315)", "pIC50": "> 7.00"}
{"COMPOUND": "COc1ccncc1CN1CCC(Nc2ccc3c(c2)Sc2cccc(-c4cc(N5CCOCC5)cc(=O)[nH]4)c2S3)CC1 [Example 1-45]", "TESTED_ON": "ATM (Homo sapiens, UniProt Q13315)", "pIC50": "6.30 to 7.00"}
{"COMPOUND": "O=c1cc(N2CCOCC2)cc(-c2cccc3c2Oc2ccc(NCc4ccc(CO)o4)cc2C3)[nH]1 [Example 2-13-3]", "TESTED_ON": "ATM (Homo sapiens, UniProt Q13315)", "pIC50": "5.70 to 6.30"}
{"COMPOUND": "O=c1cc(N2CCOCC2)cc(-c2cccc3c2Sc2ccc(NCCCCN4CCOCC4)cc2S3)[nH]1 [Example 1-9-4]", "TESTED_ON": "ATM (Homo sapiens, UniProt Q13315)", "pIC50": "6.30 to 7.00"}
{"COMPOUND": "O=c1cc(N2CCOCC2)cc(-c2cccc3c2Oc2ccc(NCc4ccccn4)cc2S3)[nH]1 [Example 4-4-24]", "TESTED_ON": "ATM (Homo sapiens, UniProt Q13315)", "pIC50": "6.30 to 7.00"}
{"COMPOUND": "O=c1cc(N2CCOCC2)cc(-c2cccc3c2Oc2ccc(NC4CCN(Cc5ncccn5)CC4)cc2C3)[nH]1 [Example 2-28-3]", "TESTED_ON": "ATM (Homo sapiens, UniProt Q13315)", "pIC50": "5.70 to 6.30"}
{"COMPOUND": "O=c1cc(N2CCOCC2)cc(-c2cccc3c2Sc2ccc(NCCN4CCS(=O)(=O)CC4)cc2S3)[nH]1 [Example 1-16-8]", "TESTED_ON": "ATM (Homo sapiens, UniProt Q13315)", "pIC50": "6.30 to 7.00"}

Fill in the blank: the reported pIC50 of Cn1cc(-c2cncc(CNc3ccc4c(c3)Cc3cccc(-c5cc(N6CCOCC6)cc(=O)[nH]5)c3O4)c2)cn1 [Example 2-2-49] is ____. 6.30 to 7.00

Look up pIC50: CC(C)Oc1cncc(CNc2ccc3c(c2)Cc2cccc(-c4cc(N5CCOCC5)cc(=O)[nH]4)c2O3)c1 [Example 2-2-65] 6.30 to 7.00

Fill in the blank: the reported pIC50 of CC(CN1CCC1)Nc1ccc2c(c1)Sc1cccc(-c3cc(N4CCOCC4)cc(=O)[nH]3)c1S2 (stereo not drawn) [Example 1-43-1] is ____. 6.30 to 7.00

Bench note: what pIC50 did O=c1cc(N2CCOCC2)cc(-c2cccc3c2Oc2ccc(NC4CCN(Cc5ccco5)CC4)cc2C3)[nH]1 [Example 2-28-27] show? 6.30 to 7.00

Name the reported pIC50 value associated with the compound CC(Nc1ccc2c(c1)Cc1cccc(-c3cc(N4CCOCC4)cc(=O)[nH]3)c1O2)c1ncc(CN2CCOCC2)cn1 (stereo not drawn) [Example 2-14-67] 5.70 to 6.30
